# systemTested: α-tubulin (Sus scrofa, UniProt P02550)
# Construct: purified porcine brain α,β-tubulin; modified peptide 340SIQFVDWCPTGFK352 of α-tubulin; with β-tubulin
# Sequence (P02550 whole entry): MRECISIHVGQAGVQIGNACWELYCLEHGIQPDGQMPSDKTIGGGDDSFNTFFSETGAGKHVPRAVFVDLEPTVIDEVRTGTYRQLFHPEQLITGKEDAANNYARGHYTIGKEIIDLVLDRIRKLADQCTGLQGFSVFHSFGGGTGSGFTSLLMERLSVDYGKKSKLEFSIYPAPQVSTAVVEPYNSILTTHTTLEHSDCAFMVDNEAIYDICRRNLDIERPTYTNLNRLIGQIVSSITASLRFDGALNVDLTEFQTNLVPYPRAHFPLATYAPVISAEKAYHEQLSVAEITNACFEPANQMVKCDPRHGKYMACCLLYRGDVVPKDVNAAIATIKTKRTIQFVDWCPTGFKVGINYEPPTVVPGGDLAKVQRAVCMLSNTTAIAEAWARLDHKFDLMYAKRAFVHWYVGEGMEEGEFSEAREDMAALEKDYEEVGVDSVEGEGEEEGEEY
# Sequence (P02554 whole entry partner): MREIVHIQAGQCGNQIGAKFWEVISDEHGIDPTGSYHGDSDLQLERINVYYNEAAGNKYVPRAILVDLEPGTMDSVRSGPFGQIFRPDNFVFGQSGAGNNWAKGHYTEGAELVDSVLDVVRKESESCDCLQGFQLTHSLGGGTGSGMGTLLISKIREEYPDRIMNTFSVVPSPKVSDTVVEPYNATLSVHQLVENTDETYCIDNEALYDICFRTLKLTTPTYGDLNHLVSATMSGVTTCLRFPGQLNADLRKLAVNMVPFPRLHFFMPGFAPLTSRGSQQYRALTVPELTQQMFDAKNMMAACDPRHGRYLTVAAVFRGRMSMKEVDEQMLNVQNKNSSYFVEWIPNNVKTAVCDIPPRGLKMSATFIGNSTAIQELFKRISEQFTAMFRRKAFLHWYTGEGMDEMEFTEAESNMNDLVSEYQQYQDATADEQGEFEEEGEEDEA
# methodNotes: LC-MS of trypsin-digested tubulin showing covalent adduct; IC50 from in vitro tubulin polymerization assay
observationType: IC50
Remember to quote the unit after the number.

Entry C=C1C2=C(CCC[C@@H]2C)C(=O)c2occ(C)c21 [compound 2] : reported IC50 = ?
43 µM
